# measurement_target: Pin1 (Homo sapiens, UniProt Q13526)
# Sequence (Q13526 whole entry): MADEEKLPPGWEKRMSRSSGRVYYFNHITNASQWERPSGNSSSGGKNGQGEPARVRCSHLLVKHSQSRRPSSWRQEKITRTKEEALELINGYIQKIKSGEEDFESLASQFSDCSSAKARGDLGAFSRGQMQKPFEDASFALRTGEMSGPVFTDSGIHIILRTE
# assay_method_text: DELFIA displacement assay (displacement of biotinylated D-peptide from 6His-Pin1)
# Assay type: binding
# Set-up: human Pin1 (residues 1-163); made in house; host or cells: E. coli BL21 (DE3) gold pLysS
# protocol_conditions: Table 4; ± SD from duplicates
pIC50: −log10 of the molar value. Where a SMILES comes first, the peptide text is derived from it. [ ]: non-standard residue; d: D form. The star is where a group is joined. Trp(7-Me) = Cc1cccc2c(C[C@H](N)C(=O)O)c[nH]c12; Pip = O=C(O)[C@@H]1CCCCN1; ClAc = O=C(CCl)*
observable: pIC50

>  <compound>
O=C(NCCc1c[nH]c2cc(Cl)cc(Cl)c12)[C@@H]1CCCCN1C(=O)[C@@H]1Cc2c([nH]c3ccccc23)CN1C(=O)CCl [164A5]

>  <measured_result>
6.36

$$$$

P: CC1(C)[C@H]2C[C@@H](C(=O)N[C@@H](Cc3c[nH]c4ccccc34)C(N)=O)N(C(=O)[C@@H]3Cc4c([nH]c5ccccc45)CN3C(=O)CCl)[C@H]21 [164A12]
Q: Cc1cccc2c(C[C@H](NC(=O)CCl)C(=O)N3CCCC[C@H]3C(=O)N[C@@H](Cc3c[nH]c4ccccc34)C(N)=O)c[nH]c12 [158H7] (ClAc-[Trp(7-Me)]-[Pip]-Trp-NH2)
-- ask Between P and Q , whose recorded pIC50 is greater? # answer = label of selected item
-- reply P
